Test system: γ-secretase
Test: Stably transfected HEK293 cell clone (SP3-C55-GAL4/VP16 + MRG5-luciferase), luciferase activity
Type: cell-based, human
Details: stably double-transfected HEK293 clone, 24 h treatment; read-out: IC50, inhibition of luciferase activity
Recorded IC50, one value per entry.
Entry rule: numbers only, all in nM.

compound: CC(C)C[C@H](NC(=O)[C@H](Cc1ccccc1)C[C@@H](O)[C@H](Cc1ccccc1)NC(=O)OC(C)(C)C)C(=O)N[C@@H](Cc1ccccc1)C(N)=O [L-685,458]
tested_target: γ-secretase
value_units: nM
endpoint_result: 130

Read the next record carefully.
Provide the documented IC50 with γ-secretase as the system for C[C@H](NC(=O)Cc1cc(F)cc(F)c1)C(=O)N[C@H](C(=O)OC(C)(C)C)c1ccccc1 [DAPT]
230
